# procedureDetails: Phase 1 first-in-human study, plasma pharmacokinetics
# Format: in vivo
# measurementConditions: female, human, plasma, po, 100 mg, single 100 mg oral solution, female fasted; read-out: t1/2, λz (converted)
measuredEndpoint: half-life (h)
Numbers only, in h.

State, in one line, measured half-life of C=CC(=O)N[C@H]1CCC[C@H]1NC(=O)c1sc2nccc3c2c1NC(=O)N3c1cnc(CC(C)C)cc1C (atropisomer, axis not shown) [compound of Formula (III)]
11.6

---

# procedureDetails: Population PK model and simulations
# Parameters: species or system human
# measurementConditions: model (B), all SAD and MAD data
measuredEndpoint: Ka, popPK estimate (h⁻¹)
Give bare numbers, in h⁻¹.

Specify measured Ka, popPK estimate for C=CC(=O)N[C@H]1CCC[C@H]1NC(=O)c1sc2nccc3c2c1NC(=O)N3c1cnc(CC(C)C)cc1C (atropisomer, axis not shown) .
1.97

---

# procedureDetails: Preclinical PK, oral and IV
# Format: in vivo, rat
# measurementConditions: rat, in vivo, po, 5 mg/kg, 5 mg/kg crystalline suspension PO (0.5% HPMC)
measuredEndpoint: Cmax
Answer by giving the amount and then stating its unit.

Name the recorded Cmax of the item C=CC(=O)N[C@H]1CCC[C@H]1NC(=O)c1sc2nccc3c2c1NC(=O)N3c1cnc(CC(C)C)cc1C (atropisomer, axis not shown) [compound of Formula (III)] in your answer.
133 ng/mL

---

# procedureDetails: Phase 1 first-in-human study, plasma pharmacokinetics
# Assay type: in vivo
# measurementConditions: male, human, plasma, po, 200 mg, single 200 mg oral solution, male fasted; read-out: tmax, median (min-max)
measuredEndpoint: Tmax (h)
Answers are plain numbers, in h.

Return reported Tmax. Input compound: C=CC(=O)N[C@H]1CCC[C@H]1NC(=O)c1sc2nccc3c2c1NC(=O)N3c1cnc(CC(C)C)cc1C (atropisomer, axis not shown) [compound of Formula (III)]
1

---

# procedureDetails: Plasma protein binding, equilibrium dialysis
# Assay type: in vitro ADME
# measurementConditions: beagle, dog, 0.25 μM, read-out: % Free in plasma
measuredEndpoint: fraction unbound at 0.25 μM
Numbers only.

Report fraction unbound at 0.25 μM for C=CC(=O)N[C@H]1CCC[C@H]1NC(=O)c1sc2nccc3c2c1NC(=O)N3c1cnc(CC(C)C)cc1C (atropisomer, axis not shown)
0.0688

---

# procedureDetails: Preclinical PK, oral and IV
# measurementConditions: dog, in vivo; oral; read-out: Oral AUCinf
measuredEndpoint: AUC(0-inf) (ng·h/mL)
Give bare numbers, in ng·h/mL.

Output AUC(0-inf) of C=CC(=O)N[C@H]1CCC[C@H]1NC(=O)c1sc2nccc3c2c1NC(=O)N3c1cnc(CC(C)C)cc1C (atropisomer, axis not shown)
1960

---

# procedureDetails: Phase 1 first-in-human study, plasma pharmacokinetics
# Type: in vivo
# measurementConditions: male, human, plasma, po, 400 mg, single 400 mg oral solution, male fasted; read-out: tmax, median (min-max)
measuredEndpoint: Tmax (min)
One number for each entry, in min.

Give Tmax for C=CC(=O)N[C@H]1CCC[C@H]1NC(=O)c1sc2nccc3c2c1NC(=O)N3c1cnc(CC(C)C)cc1C (atropisomer, axis not shown) [compound of Formula (III)]
45

---

# procedureDetails: Protein binding in RPMI culture media containing 10% FBS
# Format: in vitro ADME
# measurementConditions: bovine, read-out: % free in RPMI culture media containing 10% FBS
measuredEndpoint: fraction unbound at 1 μM
Numbers only.

State its fraction unbound at 1 μM for this molecule: C=CC(=O)N[C@H]1CCC[C@H]1NC(=O)c1sc2nccc3c2c1NC(=O)N3c1cnc(CC(C)C)cc1C (atropisomer, axis not shown)
0.317
